# experimentalSystem: OsWRKY34 (Oryza sativa, UniProt Q0JBA9 1-250)
# Sequence (Q0JBA9 entry or part of it): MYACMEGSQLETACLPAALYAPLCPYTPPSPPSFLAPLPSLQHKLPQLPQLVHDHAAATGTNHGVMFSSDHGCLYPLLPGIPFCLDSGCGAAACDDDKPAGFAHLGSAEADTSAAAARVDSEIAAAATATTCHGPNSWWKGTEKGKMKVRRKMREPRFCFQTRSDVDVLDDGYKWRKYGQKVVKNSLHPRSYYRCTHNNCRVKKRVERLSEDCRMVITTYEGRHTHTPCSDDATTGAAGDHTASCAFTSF
# procedureText: protein-binding microarray (RPBM); PBS, 2% BSA, 51.3 ng/ul salmon testes DNA, 50 uM zinc acetate, 200 nM TF, 25 C, 1 h; high values mean tight binding
# studyConditions: protein: recombinant; tags: N-terminal polyhistidine and DsRed monomer fusion (pET32a); label: CyDye5-dUTP incorporated in the synthesized complementary strand; 3' TTTTT single-stranded linker to array surface; dsDNA, one strand shown
The full ranking holds about 68,000 sequences; the median of “fluorescence intensity (a.u.)” is about 9,100, and the highest 2% start at about 16,000. The list comes from a sample in which the highest values are over-represented; it also holds close analogues and randomly drawn sequences.
I'd appreciate it if you could supply binding signal values for the items below.

[[record]]
sequenceentry = "TTCCTCCATCCATTTTGTCAACTCCTCTCCGCTTTTCATCCGGAGTCACCTAGTGCAG"
result = "9640 fluorescence intensity (a.u.)"


Provide reported binding signal for each item, in the same order as listed.
1. GCCTACTCCTACTTGTACATACTTGCTTTTTTTTTTTTTCCGGAGTCACCTAGTGCAG
2. GCCGTTAACTTTTTTAAATATGTTTGACCGTTCGTCTTATCGGAGTCACCTAGTGCAG

A.
17500 fluorescence intensity (a.u.)
10800 fluorescence intensity (a.u.)

Please give binding signal for each item listed below.
1. GTTCTTGGTTCCTGCATTTCTTTTCTTTTTTGCCTTTGTTCGGAGTCACCTAGTGCAG
2. TTCTTGTTTTCGTGGATCATCATCAACCTCAATAGAAACGCGGAGTCACCTAGTGCAG
3. TGCCTCTGTTACCACACTCTCACCTTGCTTAATAAATGCTCGGAGTCACCTAGTGCAG
4. CTGTAGAGAAATACTACACTACTGTACACTACATTCCTGCCGGAGTCACCTAGTGCAG
5. GCATCACTATTCACTCCATGTTCTCTCTTCCTACTCTCCACGGAGTCACCTAGTGCAG
6. ATCATCACTCCATTGCCGCTGTATTTGTTGTCATCGTTTTCGGAGTCACCTAGTGCAG

A.
11300 fluorescence intensity (a.u.)
8410 fluorescence intensity (a.u.)
9800 fluorescence intensity (a.u.)
8350 fluorescence intensity (a.u.)
8250 fluorescence intensity (a.u.)
11200 fluorescence intensity (a.u.)

###

# experimentalSystem: OsWRKY34 (Oryza sativa, UniProt Q0JBA9 1-250)
# procedureText: protein-binding microarray (RPBM); PBS, 2% BSA, 51.3 ng/ul salmon testes DNA, 50 uM zinc acetate, 200 nM TF, 25 C, 1 h; high values mean tight binding
# studyConditions: protein: recombinant; tags: N-terminal polyhistidine and DsRed monomer fusion (pET32a); label: CyDye5-dUTP incorporated in the synthesized complementary strand; 3' TTTTT single-stranded linker to array surface; dsDNA, one strand shown
The full ranking holds about 68,000 sequences; the median of “fluorescence intensity (a.u.)” is about 9,100, and the highest 2% start at about 16,000. The list comes from a sample in which the highest values are over-represented; it also holds close analogues and randomly drawn sequences.
property: binding signal

Some sequences with known binding signal results, for comparison:
[[record]]
sequenceentry = "GGTGTTAGCTTTAGGTTTTGGTGTTTGGTTGGGTAATTTTCGGAGTCACCTAGTGCAG"
experimentalsystem = "OsWRKY34 (Oryza sativa, UniProt Q0JBA9 1-250)"
property = "binding signal"
result = "17300 fluorescence intensity (a.u.)"

[[record]]
sequenceentry = "TGAGTTTTTGTTTGTATTGTTTGACTACTCGTCTTATTCACGGAGTCACCTAGTGCAG"
experimentalsystem = "OsWRKY34 (Oryza sativa, UniProt Q0JBA9 1-250)"
property = "binding signal"
result = "10400 fluorescence intensity (a.u.)"

[[record]]
sequenceentry = "GAAAACCTAGGGTTAGGTTTGGTGGGGTTGGCAGCTTTCGCGGAGTCACCTAGTGCAG"
experimentalsystem = "OsWRKY34 (Oryza sativa, UniProt Q0JBA9 1-250)"
property = "binding signal"
result = "16400 fluorescence intensity (a.u.)"

[[record]]
sequenceentry = "GTTTCTTGGTCGTGGGGTCGAGGAGGTGGTGGGTGGTGGTCGGAGTCACCTAGTGCAG"
experimentalsystem = "OsWRKY34 (Oryza sativa, UniProt Q0JBA9 1-250)"
property = "binding signal"
result = "14800 fluorescence intensity (a.u.)"


// for each sequence below, give its binding signal
1. GGGTACAGGGGTGGGGACTTGGGTGTGTTGTGGTGGTTACCGGAGTCACCTAGTGCAG
2. TCATTCCTATGTTTTTTCTGTGTTTTGCAATTCTCTGTTTCGGAGTCACCTAGTGCAG
3. TAGCTAGCTCTTGTACAGGTTTCCTCACCTGCTGTATCGACGGAGTCACCTAGTGCAG
4. GAATCCACCGCATTTTTCCGCCGCCCCACGCGGCGCCACCCGGAGTCACCTAGTGCAG
5. TTCGTCTCCGTTTCGTCTTCTTCTTCTTCTTCTTCTTCGGCGGAGTCACCTAGTGCAG
6. TACTAATTTCCTTCGCACATCCAGCAATCAGATATCCTGACGGAGTCACCTAGTGCAG

A.
["12400 fluorescence intensity (a.u.)", "14900 fluorescence intensity (a.u.)", "8060 fluorescence intensity (a.u.)", "19700 fluorescence intensity (a.u.)", "8790 fluorescence intensity (a.u.)", "9760 fluorescence intensity (a.u.)"]

For every record below, what is its binding signal?
1. GGGTGTGTAAGGGTAGGTGGAGGGGTGGGTGATGCGAGATCGGAGTCACCTAGTGCAG
2. ACCCCACCTGTCAGACAACCCCACCGCCGCTTCGCTTCACCGGAGTCACCTAGTGCAG

A.
20400 fluorescence intensity (a.u.)
17300 fluorescence intensity (a.u.)

###

I'd be grateful if you could share measured binding signal for these entries.
# experimentalSystem: OsWRKY34 (Oryza sativa, UniProt Q0JBA9 1-250)
# procedureText: protein-binding microarray (RPBM); PBS, 2% BSA, 51.3 ng/ul salmon testes DNA, 50 uM zinc acetate, 200 nM TF, 25 C, 1 h; high values mean tight binding
# studyConditions: protein: recombinant; tags: N-terminal polyhistidine and DsRed monomer fusion (pET32a); label: CyDye5-dUTP incorporated in the synthesized complementary strand; 3' TTTTT single-stranded linker to array surface; dsDNA, one strand shown
In all, about 68,000 sequences were measured (“fluorescence intensity (a.u.)”: median about 9,100, highest 2% from about 16,000 on). The entries come from a sample that favours the highest values as a whole.

The cases that follow already have their binding signal on record.
[[record]]
sequenceentry = "GGAGGGTGGAGGGCGGAGGACGGAGGTGGTGGCGCCGCGCCGGAGTCACCTAGTGCAG"
property = "binding signal"
result = "9550 fluorescence intensity (a.u.)"

[[record]]
sequenceentry = "GACCTTTGGGTAGGGGTGGGGATGGGGCGAAATTACTAAACGGAGTCACCTAGTGCAG"
property = "binding signal"
result = "30300 fluorescence intensity (a.u.)"


Q. # lookup: binding signal of "GAAAGTGGGAGAGAGAATAGGTTGGGGTGGTTGGTTTGGGCGGAGTCACCTAGTGCAG"
A. 14700 fluorescence intensity (a.u.)

###

# experimentalSystem: OsWRKY34 (Oryza sativa, UniProt Q0JBA9 1-250)
# procedureText: protein-binding microarray (RPBM); PBS, 2% BSA, 51.3 ng/ul salmon testes DNA, 50 uM zinc acetate, 200 nM TF, 25 C, 1 h; high values mean tight binding
# studyConditions: protein: recombinant; tags: N-terminal polyhistidine and DsRed monomer fusion (pET32a); label: CyDye5-dUTP incorporated in the synthesized complementary strand; 3' TTTTT single-stranded linker to array surface; dsDNA, one strand shown
The full ranking holds about 68,000 sequences; the median of “fluorescence intensity (a.u.)” is about 9,100, and the highest 2% start at about 16,000. Many of the other results were omitted from the sample, so the highest values are more common in it than they were.
property: binding signal

Examples with their reported binding signal follow.
[[record]]
sequenceentry = "GATGCGCGCGAACGGAGACGACGGGGTAGGGTGGGGAGGGCGGAGTCACCTAGTGCAG"
result = "12300 fluorescence intensity (a.u.)"

[[record]]
sequenceentry = "GGGCGGAGCGGGGCGGAGGGAGAGGAGGGAGAGGAGGGAGCGGAGTCACCTAGTGCAG"
result = "8480 fluorescence intensity (a.u.)"

[[record]]
sequenceentry = "TACGCGTTATTTGTTTTTCGCAGCGTTTCCTTTTTTTTTTCGGAGTCACCTAGTGCAG"
result = "9540 fluorescence intensity (a.u.)"

[[record]]
sequenceentry = "AGTCAGTGACATCTATCTTTTCATCGATGTGTCTATTGCCCGGAGTCACCTAGTGCAG"
result = "8640 fluorescence intensity (a.u.)"

[[record]]
sequenceentry = "ACGGCATTTTTCGCCCCTTTTGTCACTGAAACACTTCACCCGGAGTCACCTAGTGCAG"
result = "8860 fluorescence intensity (a.u.)"


Field: binding signal. Fill in for each record below.
1. TCGGCCCGAGCGGTGGCGGTGGCGGTGGCGGAGGAGGAGGCGGAGTCACCTAGTGCAG
2. AAGCTCCGATCCACAGCGCACCTCGAGCCCTACCTCCGATCGGAGTCACCTAGTGCAG
3. CTCCTCTCTCTCTCAGCTCACCACACCTCGAGTCGCCGCCCGGAGTCACCTAGTGCAG

A.
["10100 fluorescence intensity (a.u.)", "8940 fluorescence intensity (a.u.)", "8180 fluorescence intensity (a.u.)"]

Cited source for all entries: paper PMC7819943
